The reported numbers originate from patent US20180355061A1.

molecular target: T1, human PD-1 (soluble analyte in SPR) (human, UniProt Q15116 25-170, limits assumed); assay: SPR (ProteOn XPR36), mAb captured on anti-human IgG Fc, PD-1 as analyte, 25 C
T1 construct: also called CD279; PDCD1
T1 sequence (Q15116 25-170 limits assumed): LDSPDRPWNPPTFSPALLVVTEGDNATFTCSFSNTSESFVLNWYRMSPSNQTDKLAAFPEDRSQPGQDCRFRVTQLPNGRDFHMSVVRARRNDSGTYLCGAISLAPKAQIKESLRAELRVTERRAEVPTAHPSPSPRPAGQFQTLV
Each entry below carries its recorded kon.
reported.metric: kon

binder	test.value
PD1B743 (antibody, human IgG1, kappa, V domains shown, Humanized PD1B505, IgG1; also called VH PD1H384; VL PD1L469) VH: QVQLVQSGSELKKPGASVKVSCKASGYTFTDYSMHWVRQAPGQGLEWMGWINIETGEPTYAQGFTGRFVFSLDTSVSTAYLQICSLKAEDTAVYFCARDYYGTYFYAMDYWGQGTLVTVSS VL: EIVLTQSPATLSLSPGERATLSCTASSSVSSSYLHWYQQKPGLAPRLLIYSTSNLASGIPDRFSGSGSGTDYTLTISRLEPEDFAVYYCHQYHRSPLTFGQGTKLEIKR	91500 M⁻¹ s⁻¹
PD1B878 (antibody, human IgG1, kappa, V domains shown, C84S variant of PD1B743, IgG1; also called VH PD1H405; VL PD1L469) VH: QVQLVQSGSELKKPGASVKVSCKASGYTFTDYSMHWVRQAPGQGLEWMGWINIETGEPTYAQGFTGRFVFSLDTSVSTAYLQISSLKAEDTAVYFCARDYYGTYFYAMDYWGQGTLVTVSS VL: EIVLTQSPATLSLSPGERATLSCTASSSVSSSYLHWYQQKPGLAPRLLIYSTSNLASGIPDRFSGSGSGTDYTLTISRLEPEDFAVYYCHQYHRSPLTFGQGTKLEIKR	59800 M⁻¹ s⁻¹
PD1B506 (antibody, human IgG1, kappa, V domains shown, Parental mouse antibody cloned as chimeric human IgG1; Bin 5; also called VH PD1H90; VL PD1L28) VH: QVQLQQPGAELVKPGASVKLSCKASGYTFTTYWMHWVKQRPGQGLEWIGEINPNNGGINYNEKFKKKATLTVDKSSSTAYMQLSSLTSEDSAVYYCTIDYYDYGGYWGQGTTLTVSS VL: DIVMTQSQKFMSTSVRDRVSVTCKASQNVGTNVAWYQQKPGQSPKALIYSASYRYSGVPDRFTGSGSGTDFTLTITNVQSEDLAEYFCQQYNIYPYTFGSGTKLEMKR	195000 M⁻¹ s⁻¹
